- System: SkMel133 cells
- experimental-details: Cell viability, resazurin assay
- Format: cell-based
- particulars: RAFi resistant SkMel133 cells, single agent; read-out: IC50 for single agent
pIC50: −log10 of the molar value.
recorded-metric: pIC50

What does the record list as pIC50 for CCCS(=O)(=O)Nc1ccc(F)c(C(=O)c2c[nH]c3ncc(Cl)cc23)c1F [PLX4720] ?
< 6.00

The reported measurements were obtained from patent US20150342960A1.
